Values compiled from the supplement of paper PMC10307832.

System: HCC-366
Protocol Notes: relative viability (nuclei count vs DMSO), 5 days (fraction); higher = more cells survive
Measurement Setup: first compound 0.006325 µM

| Compound | relative viability |
| --- | --- |
| CCNC(=O)c1noc(-c2cc(C(C)C)c(O)cc2O)c1-c1ccc(CN2CCOCC2)cc1 [Luminespib] + CS(=O)(=O)N1CCN(Cc2cc3nc(-c4cccc5[nH]ncc45)nc(N4CCOCC4)c3s2)CC1 [Pictilisib] (partner 1 µM) | 0.156 |
| CCNC(=O)c1noc(-c2cc(C(C)C)c(O)cc2O)c1-c1ccc(CN2CCOCC2)cc1 [Luminespib] + Nc1ncn([C@H]2C[C@H](O)[C@@H](CO)O2)c(=O)n1 [Decitabine] (partner 2 µM) | 0.359 |
| CCNC(=O)c1noc(-c2cc(C(C)C)c(O)cc2O)c1-c1ccc(CN2CCOCC2)cc1 [Luminespib] + C[C@]1(O)C[C@@H](c2nc(-c3ccc4ccc(-c5ccccc5)nc4c3)c3c(N)nccn32)C1 [Linsitinib] (partner 1 µM) | 0.696 |
| CCNC(=O)c1noc(-c2cc(C(C)C)c(O)cc2O)c1-c1ccc(CN2CCOCC2)cc1 [Luminespib] + Cc1nc(NC(=O)N2CCC[C@H]2C(N)=O)sc1-c1ccnc(C(C)(C)C(F)(F)F)c1 [Alpelisib] (partner 2 µM) | 0.496 |

----------
# key: entry, value: relative viability
System: NCI-H520
Protocol Notes: relative viability (nuclei count vs DMSO), 5 days (fraction); higher = more cells survive
Measurement Setup: first compound 20 µM

| Compound | System Tested | relative viability |
| --- | --- | --- |
| Cc1csc(=NC2CCCCC2)n1/N=C/c1ccc(O)c(O)c1O [MIM1] + C[C@]1(O)C[C@@H](c2nc(-c3ccc4ccc(-c5ccccc5)nc4c3)c3c(N)nccn32)C1 [Linsitinib] (partner 1 µM) | NCI-H520 | 0.5 |
| Cc1csc(=NC2CCCCC2)n1/N=C/c1ccc(O)c(O)c1O [MIM1] + C[C@@H](Oc1cc(-c2cnn(C3CCNCC3)c2)cnc1N)c1c(Cl)ccc(F)c1Cl [Crizotinib] (partner 1 µM) | NCI-H520 | 0.498 |
| Cc1csc(=NC2CCCCC2)n1/N=C/c1ccc(O)c(O)c1O [MIM1] + CC(=O)c1c(C)c2cnc(Nc3ccc(N4CCNCC4)cn3)nc2n(C2CCCC2)c1=O [Palbociclib] (partner 0.5 µM) | NCI-H520 | 0.183 |
| Cc1csc(=NC2CCCCC2)n1/N=C/c1ccc(O)c(O)c1O [MIM1] + O=C(c1cc(Cc2n[nH]c(=O)c3ccccc23)ccc1F)N1CCN(C(=O)C2CC2)CC1 [Olaparib] (partner 8 µM) | NCI-H520 | 0.209 |

----------
Measured relative viability accompanies every entry in the list below.
Test system: NCI-H2126
Protocol Notes: relative viability (nuclei count vs DMSO), 5 days (fraction); higher = more cells survive
Measurement Setup: first compound 0.001 µM

| Compound | relative viability |
| --- | --- |
| Cc1cn(-c2cc(NC(=O)c3ccc(C)c(Nc4nccc(-c5cccnc5)n4)c3)cc(C(F)(F)F)c2)cn1 [Nilotinib] + CC(=O)c1c(C)c2cnc(Nc3ccc(N4CCNCC4)cn3)nc2n(C2CCCC2)c1=O [Palbociclib] (partner 0.5 µM) | 0.337 |
| Cc1cn(-c2cc(NC(=O)c3ccc(C)c(Nc4nccc(-c5cccnc5)n4)c3)cc(C(F)(F)F)c2)cn1 [Nilotinib] + COc1cc2c(Oc3ccc(NC(=O)C4(C(=O)Nc5ccc(F)cc5)CC4)cc3F)ccnc2cc1OCCCN1CCOCC1 [Foretinib] (partner 0.25 µM) | 1.08 |
| Cc1cn(-c2cc(NC(=O)c3ccc(C)c(Nc4nccc(-c5cccnc5)n4)c3)cc(C(F)(F)F)c2)cn1 [Nilotinib] + O=C(c1cc(Cc2n[nH]c(=O)c3ccccc23)ccc1F)N1CCN(C(=O)C2CC2)CC1 [Olaparib] (partner 8 µM) | 0.902 |
| Cc1cn(-c2cc(NC(=O)c3ccc(C)c(Nc4nccc(-c5cccnc5)n4)c3)cc(C(F)(F)F)c2)cn1 [Nilotinib] + Nc1ncn([C@H]2C[C@H](O)[C@@H](CO)O2)c(=O)n1 [Decitabine] (partner 2 µM) | 0.541 |

----------
relative viability listing for selected compounds.
Tested on: HOP-62
Protocol Notes: relative viability (nuclei count vs DMSO), 5 days (fraction); higher = more cells survive
Measurement Setup: first compound 0.2 µM
Measurement Type: relative viability

| Compound | System Tested | Measurement Type | Test Result |
| --- | --- | --- | --- |
| CN1CCN(CCOc2cc(OC3CCOCC3)c3c(Nc4c(Cl)ccc5c4OCO5)ncnc3c2)CC1 [Saracatinib] + CC(=O)Nc1cccc(-n2c(=O)n(C3CC3)c(=O)c3c(Nc4ccc(I)cc4F)n(C)c(=O)c(C)c32)c1 [Trametinib] (partner 0.02 µM) | HOP-62 | relative viability | 0.455 |
| CCNC(=O)c1noc(-c2cc(C(C)C)c(O)cc2O)c1-c1ccc(CN2CCOCC2)cc1 [Luminespib] + Cc1nc(Nc2ncc(C(=O)Nc3c(C)cccc3Cl)s2)cc(N2CCN(CCO)CC2)n1 [Dasatinib] (partner 0.075 µM) | HOP-62 | relative viability | 0.102 |

----------
Test system: NCI-H23
Protocol Notes: relative viability (nuclei count vs DMSO), 5 days (fraction); higher = more cells survive
Measurement Setup: first compound 0.03162 µM

| Compound | System Tested | relative viability |
| --- | --- | --- |
| Cc1cn(-c2cc(NC(=O)c3ccc(C)c(Nc4nccc(-c5cccnc5)n4)c3)cc(C(F)(F)F)c2)cn1 [Nilotinib] + N=C(N)NC(=N)NCCc1ccccc1 [Phenformin] (partner 250 µM) | NCI-H23 | 0.624 |
| Cc1cn(-c2cc(NC(=O)c3ccc(C)c(Nc4nccc(-c5cccnc5)n4)c3)cc(C(F)(F)F)c2)cn1 [Nilotinib] + Cc1nc(NC(=O)N2CCC[C@H]2C(N)=O)sc1-c1ccnc(C(C)(C)C(F)(F)F)c1 [Alpelisib] (partner 2 µM) | NCI-H23 | 0.536 |
| Cc1cn(-c2cc(NC(=O)c3ccc(C)c(Nc4nccc(-c5cccnc5)n4)c3)cc(C(F)(F)F)c2)cn1 [Nilotinib] + Cc1nc(Nc2ncc(C(=O)Nc3c(C)cccc3Cl)s2)cc(N2CCN(CCO)CC2)n1 [Dasatinib] (partner 0.075 µM) | NCI-H23 | 0.309 |
| Cc1cn(-c2cc(NC(=O)c3ccc(C)c(Nc4nccc(-c5cccnc5)n4)c3)cc(C(F)(F)F)c2)cn1 [Nilotinib] + COc1cc2c(Oc3ccc(NC(=O)C4(C(=O)Nc5ccc(F)cc5)CC4)cc3F)ccnc2cc1OCCCN1CCOCC1 [Foretinib] (partner 0.25 µM) | NCI-H23 | 0.79 |

----------
System: PC-3 [JPC-3]
Protocol Notes: relative viability (nuclei count vs DMSO), 5 days (fraction); higher = more cells survive
Measurement Setup: first compound 0.2 µM
# Lookup of reported relative viability keyed by entry
Measurement Type: relative viability

| Compound | Measurement Type | Test Result |
| --- | --- | --- |
| CN1CCN(CCOc2cc(OC3CCOCC3)c3c(Nc4c(Cl)ccc5c4OCO5)ncnc3c2)CC1 [Saracatinib] + CC(=O)c1c(C)c2cnc(Nc3ccc(N4CCNCC4)cn3)nc2n(C2CCCC2)c1=O [Palbociclib] (partner 0.5 µM) | relative viability | 0.507 |
| CCNC(=O)c1noc(-c2cc(C(C)C)c(O)cc2O)c1-c1ccc(CN2CCOCC2)cc1 [Luminespib] + CS(=O)(=O)CCNCc1ccc(-c2ccc3ncnc(Nc4ccc(OCc5cccc(F)c5)c(Cl)c4)c3c2)o1 [Lapatinib] (partner 2 µM) | relative viability | 0.338 |
| Cc1csc(=NC2CCCCC2)n1/N=C/c1ccc(O)c(O)c1O [MIM1] + O=C(CCCCCCC(=O)Nc1ccccc1)NO [Vorinostat] (partner 1 µM) | relative viability | 0.776 |
| CCNC(=O)c1noc(-c2cc(C(C)C)c(O)cc2O)c1-c1ccc(CN2CCOCC2)cc1 [Luminespib] + CC(C)C[C@H](NC(=O)[C@H](Cc1ccccc1)NC(=O)c1cnccn1)B(O)O [Bortezomib] (partner 0.002 µM) | relative viability | 0.503 |

----------
Overview of recorded relative viability for various compounds
Test system: RERF-LC-KJ
Protocol Notes: relative viability (nuclei count vs DMSO), 5 days (fraction); higher = more cells survive
Measurement Setup: first compound 0.003162 µM

| Compound | relative viability |
| --- | --- |
| Cc1cn(-c2cc(NC(=O)c3ccc(C)c(Nc4nccc(-c5cccnc5)n4)c3)cc(C(F)(F)F)c2)cn1 [Nilotinib] + CC(C)C[C@H](NC(=O)[C@H](Cc1ccccc1)NC(=O)c1cnccn1)B(O)O [Bortezomib] (partner 0.002 µM) | 1.14 |
| Cc1cn(-c2cc(NC(=O)c3ccc(C)c(Nc4nccc(-c5cccnc5)n4)c3)cc(C(F)(F)F)c2)cn1 [Nilotinib] + COc1cc2c(Oc3ccc(NC(=O)C4(C(=O)Nc5ccc(F)cc5)CC4)cc3F)ccnc2cc1OCCCN1CCOCC1 [Foretinib] (partner 0.25 µM) | 1.08 |
| Cc1cn(-c2cc(NC(=O)c3ccc(C)c(Nc4nccc(-c5cccnc5)n4)c3)cc(C(F)(F)F)c2)cn1 [Nilotinib] + CC(=O)Nc1cccc(-n2c(=O)n(C3CC3)c(=O)c3c(Nc4ccc(I)cc4F)n(C)c(=O)c(C)c32)c1 [Trametinib] (partner 0.02 µM) | 0.985 |
| Cc1cn(-c2cc(NC(=O)c3ccc(C)c(Nc4nccc(-c5cccnc5)n4)c3)cc(C(F)(F)F)c2)cn1 [Nilotinib] + N=C(N)NC(=N)NCCc1ccccc1 [Phenformin] (partner 250 µM) | 0.449 |
